Biological target: T1, integrin αVβ3 (UniProt P06756 31-992; P05106 27-718)
T1 construct: Coated on the ELISA plate
T1 sequence (P06756 31-992, chain 1 of 2): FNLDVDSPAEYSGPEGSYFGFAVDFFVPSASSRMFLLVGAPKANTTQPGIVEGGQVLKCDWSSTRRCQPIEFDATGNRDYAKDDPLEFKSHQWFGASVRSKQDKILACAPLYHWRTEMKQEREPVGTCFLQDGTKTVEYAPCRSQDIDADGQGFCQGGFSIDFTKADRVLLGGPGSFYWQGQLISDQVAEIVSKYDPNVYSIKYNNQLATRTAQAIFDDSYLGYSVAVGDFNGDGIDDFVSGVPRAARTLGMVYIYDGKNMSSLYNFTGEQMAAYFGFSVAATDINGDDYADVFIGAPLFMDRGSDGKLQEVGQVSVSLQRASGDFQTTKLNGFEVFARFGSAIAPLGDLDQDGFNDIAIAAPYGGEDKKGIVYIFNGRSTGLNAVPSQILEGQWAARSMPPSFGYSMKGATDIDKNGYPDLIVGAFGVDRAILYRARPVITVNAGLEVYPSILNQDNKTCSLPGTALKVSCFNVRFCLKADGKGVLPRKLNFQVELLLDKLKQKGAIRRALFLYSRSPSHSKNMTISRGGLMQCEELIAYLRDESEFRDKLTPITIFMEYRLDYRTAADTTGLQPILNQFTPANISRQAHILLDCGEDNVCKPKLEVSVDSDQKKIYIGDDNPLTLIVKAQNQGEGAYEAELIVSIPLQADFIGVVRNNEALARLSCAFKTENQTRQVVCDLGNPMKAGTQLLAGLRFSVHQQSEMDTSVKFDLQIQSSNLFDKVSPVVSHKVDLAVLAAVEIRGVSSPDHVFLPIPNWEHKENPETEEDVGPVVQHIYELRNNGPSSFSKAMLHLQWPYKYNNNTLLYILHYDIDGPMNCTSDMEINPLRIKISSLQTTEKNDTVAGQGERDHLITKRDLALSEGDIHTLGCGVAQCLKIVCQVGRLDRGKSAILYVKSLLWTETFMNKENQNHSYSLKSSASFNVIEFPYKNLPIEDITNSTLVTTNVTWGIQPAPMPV
T1 sequence (P05106 27-718, chain 2 of 2): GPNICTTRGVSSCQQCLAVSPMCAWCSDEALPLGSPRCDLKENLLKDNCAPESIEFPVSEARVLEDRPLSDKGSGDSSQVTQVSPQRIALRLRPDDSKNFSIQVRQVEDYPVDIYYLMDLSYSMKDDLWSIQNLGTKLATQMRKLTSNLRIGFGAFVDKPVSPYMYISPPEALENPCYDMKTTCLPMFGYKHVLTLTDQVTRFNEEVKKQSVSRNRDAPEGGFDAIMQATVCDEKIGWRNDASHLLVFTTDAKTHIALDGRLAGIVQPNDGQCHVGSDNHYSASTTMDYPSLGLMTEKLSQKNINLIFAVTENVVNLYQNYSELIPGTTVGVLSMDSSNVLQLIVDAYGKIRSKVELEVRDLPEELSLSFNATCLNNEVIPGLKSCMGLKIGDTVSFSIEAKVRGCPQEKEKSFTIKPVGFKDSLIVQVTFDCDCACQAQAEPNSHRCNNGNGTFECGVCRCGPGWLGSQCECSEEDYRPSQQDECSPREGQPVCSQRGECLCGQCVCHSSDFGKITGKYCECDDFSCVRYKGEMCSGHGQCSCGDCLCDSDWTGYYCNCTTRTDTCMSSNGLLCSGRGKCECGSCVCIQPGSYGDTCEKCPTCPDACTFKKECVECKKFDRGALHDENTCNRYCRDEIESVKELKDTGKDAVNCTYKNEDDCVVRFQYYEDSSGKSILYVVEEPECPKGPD
Experiment: ELISA, coated integrin, anti-MICA-HRP
MEASUREMENT_TYPE: αvβ3 signal/ng (signal/ng MICA)
Answers are plain numbers, in signal/ng MICA.

Past entries and their recorded results:
{"BINDER": "soluble MICA generated from pKK36 (loop 1 insert 3.1) (designed binder, From pKK34 (His6, Glu125); secreted by 293T cells; also called 1-3.1) HHHHHHEPHSLRYNLTVLSWDGSVQSGFLTEVHLDGQPFLRCDRQKCRAKPQGQWAEDVLGNKTWDRETRDLTGNGKDLRMTLAHIKDQKEGLHSLQEIRVCEIHEDNSTRSSQHFYYDGELFLSQNLETEEWTMPQSSRAQTLAMNVRNFLKEDAMKTKTHYHAMHADCLQELRRYLKSGVVLRRTVPPMVNVTSRGDHPRTQVTCRASGFYPWNITLSWRQDGVSLSHDTQQWGDVLPDGNGTYQTWVATRICQGEEQRFTCYMEHSGNHSTHPVPSGK", "αvβ3 signal/ng / signal/ng MICA": 19}
{"BINDER": "soluble MICA generated from pKK56 (tight loop 1 insert T-5.3) (designed binder, From pSW324 (from pKK34: His6, Glu125); secreted by 293T cells; also called 1-T-5.3) HHHHHHEPHSLRYNLTVLSWDGSVQSGFLTEVHLDGQPFLRCDRQKCRAKPQGQWAEDVLGNKTWDRETRDLTGNGKDLRMTLAHIKDQKEGLHSLQEIRVCEIHEDNSTRSSQHFYYDGELFLSQNLETEEWTMPQSSRAQTLAMNVRNFLKEDAMKTKTHYHAMHADCLQELRRYLKSGVVLRRTVPPMVNHLARGDDLTYCRASGFYPWNITLSWRQDGVSLSHDTQQWGDVLPDGNGTYQTWVATRICQGEEQRFTCYMEHSGNHSTHPVPSGK", "αvβ3 signal/ng / signal/ng MICA": 16.4}

Would you mind giving αvβ3 signal/ng for every binder in the list below?
1. soluble MICA generated from pKK52 (tight loop 1 insert T-3.1) (designed binder, From pSW324 (from pKK34: His6, Glu125); secreted by 293T cells; also called 1-T-3.1) HHHHHHEPHSLRYNLTVLSWDGSVQSGFLTEVHLDGQPFLRCDRQKCRAKPQGQWAEDVLGNKTWDRETRDLTGNGKDLRMTLAHIKDQKEGLHSLQEIRVCEIHEDNSTRSSQHFYYDGELFLSQNLETEEWTMPQSSRAQTLAMNVRNFLKEDAMKTKTHYHAMHADCLQELRRYLKSGVVLRRTVPPMVNTSRGDHPRTQCRASGFYPWNITLSWRQDGVSLSHDTQQWGDVLPDGNGTYQTWVATRICQGEEQRFTCYMEHSGNHSTHPVPSGK
2. soluble MICA generated from pKK54 (tight loop 1 insert T-3.3) (designed binder, From pSW324 (from pKK34: His6, Glu125); secreted by 293T cells; also called 1-T-3.3) HHHHHHEPHSLRYNLTVLSWDGSVQSGFLTEVHLDGQPFLRCDRQKCRAKPQGQWAEDVLGNKTWDRETRDLTGNGKDLRMTLAHIKDQKEGLHSLQEIRVCEIHEDNSTRSSQHFYYDGELFLSQNLETEEWTMPQSSRAQTLAMNVRNFLKEDAMKTKTHYHAMHADCLQELRRYLKSGVVLRRTVPPMVNRVPRGDSDLTCRASGFYPWNITLSWRQDGVSLSHDTQQWGDVLPDGNGTYQTWVATRICQGEEQRFTCYMEHSGNHSTHPVPSGK
3. soluble MICA generated from pKK44 (loop 1 insert extended 3.2sp) (designed binder, From pKK34 (His6, Glu125); secreted by 293T cells; also called 1-3.2sp) HHHHHHEPHSLRYNLTVLSWDGSVQSGFLTEVHLDGQPFLRCDRQKCRAKPQGQWAEDVLGNKTWDRETRDLTGNGKDLRMTLAHIKDQKEGLHSLQEIRVCEIHEDNSTRSSQHFYYDGELFLSQNLETEEWTMPQSSRAQTLAMNVRNFLKEDAMKTKTHYHAMHADCLQELRRYLKSGVVLRRTVPPMVNVTSGGSGGGSTSRGDHPRTQSGGSGGGVTCRASGFYPWNITLSWRQDGVSLSHDTQQWGDVLPDGNGTYQTWVATRICQGEEQRFTCYMEHSGNHSTHPVPSGK

Solution:
1: 10.1; 2: 19.5; 3: 8.92
